# reported Papp 3 (PAMPA); entries follow
- PROTOCOL NOTES: Parallel artificial membrane permeability assay (PAMPA)
- Type: in vitro ADME
- EXPERIMENTAL CONDITIONS: pH 7.4, replicate 3
ENDPOINT LABEL: Papp 3 (PAMPA) (×10⁻⁶ cm/s)

COMPOUND: CC(=NOCc1ccc(C)cc1)c1c(C)cc(=O)n(O)c1O [Compound 1462]
ENDPOINT LABEL: Papp 3 (PAMPA)
TEST VALUE: 2.84
//
COMPOUND: CC(=NOCc1ccc2ccccc2c1)c1c(C)cc(=O)n(O)c1O [Compound 1811]
ENDPOINT LABEL: Papp 3 (PAMPA)
TEST VALUE: 4.02
//
COMPOUND: CC(=NOCc1ccc(OCc2ccccc2)cc1)c1c(C)cc(=O)n(O)c1O [Compound 1738]
ENDPOINT LABEL: Papp 3 (PAMPA)
TEST VALUE: 9.47
//
COMPOUND: CC(=NOCc1ccc(OCc2ccc(C(C)(C)C)cc2)cc1)c1c(C)cc(=O)n(O)c1O [Compound 1808]
ENDPOINT LABEL: Papp 3 (PAMPA)
TEST VALUE: 2.6
//
COMPOUND: CC(=NOCc1ccc(F)cc1F)c1c(C)cc(=O)n(O)c1O [Compound 1464]
ENDPOINT LABEL: Papp 3 (PAMPA)
TEST VALUE: 2.3
//
COMPOUND: CC(=NOCc1ccc(OCc2ccc3ccccc3c2)cc1)c1c(C)cc(=O)n(O)c1O [Compound 1899]
ENDPOINT LABEL: Papp 3 (PAMPA)
TEST VALUE: 2.16
//
COMPOUND: CC(=NOCc1ccc(Cl)cc1)c1c(C)cc(=O)n(O)c1O [Compound 1466]
ENDPOINT LABEL: Papp 3 (PAMPA)
TEST VALUE: 2.29
//
COMPOUND: CC(=NOCc1ccc(F)c(F)c1)c1c(C)cc(=O)n(O)c1O [Compound 1617]
ENDPOINT LABEL: Papp 3 (PAMPA)
TEST VALUE: 0.911
//
COMPOUND: CC(=NOCc1ccccc1Br)c1c(C)cc(=O)n(O)c1O [Compound 1718]
ENDPOINT LABEL: Papp 3 (PAMPA)
TEST VALUE: 3.29
//
COMPOUND: CC(=NOCc1cc(F)ccc1F)c1c(C)cc(=O)n(O)c1O [Compound 1810]
ENDPOINT LABEL: Papp 3 (PAMPA)
TEST VALUE: 7.59
//
COMPOUND: CC(=NOCc1ccccc1C)c1c(C)cc(=O)n(O)c1O [Compound 1681]
ENDPOINT LABEL: Papp 3 (PAMPA)
TEST VALUE: 4.69
//
COMPOUND: CC(=NOCc1cccc(Br)c1)c1c(C)cc(=O)n(O)c1O [Compound 1621]
ENDPOINT LABEL: Papp 3 (PAMPA)
TEST VALUE: 10.6

----------
- PROTOCOL NOTES: Solubility limit, turbidimetric assay
- Assay type: physicochemical
- EXPERIMENTAL CONDITIONS: pH 7.4 (DMEM-F12 with 10% FBS); upper limit 200 µM
- Method: Solubility limits were determined by a turbidimetric assay, as described ([27]), with the solubility limit being defined as the compound concentration where light scattering began to rise. Two or more replicate assays were performed for each compound at each pH on different days.
# reported Average Sol (solubility limit); entries follow
ENDPOINT LABEL: Average Sol (solubility limit) (µM)

COMPOUND: CC(=NOCc1ccc2ccccc2c1)c1c(C)cc(=O)n(O)c1O [Compound 1811]
RESULT UNIT: µM
COMPARISON OPERATOR: =
TEST VALUE: 167

COMPOUND: CC(=NOCc1ccccc1Br)c1c(C)cc(=O)n(O)c1O [Compound 1718]
RESULT UNIT: µM
COMPARISON OPERATOR: =
TEST VALUE: 150

COMPOUND: CC(=NOCc1ccc(F)c(F)c1)c1c(C)cc(=O)n(O)c1O [Compound 1617]
RESULT UNIT: µM
COMPARISON OPERATOR: >
TEST VALUE: 200

COMPOUND: COc1ccc(CON=C(C)c2c(C)cc(=O)n(O)c2O)cc1OC [Compound 1669]
RESULT UNIT: µM
COMPARISON OPERATOR: >
TEST VALUE: 200

COMPOUND: CC(=NOCc1ccc(Br)cc1)c1c(C)cc(=O)n(O)c1O [Compound 1717]
RESULT UNIT: µM
COMPARISON OPERATOR: =
TEST VALUE: 138

COMPOUND: CC(=NOCc1ccccc1C)c1c(C)cc(=O)n(O)c1O [Compound 1681]
RESULT UNIT: µM
COMPARISON OPERATOR: =
TEST VALUE: 106

COMPOUND: CC(=NOCc1ccc(OCc2ccc3ccccc3c2)cc1)c1c(C)cc(=O)n(O)c1O [Compound 1899]
RESULT UNIT: µM
COMPARISON OPERATOR: >
TEST VALUE: 200

COMPOUND: CC(=NOCc1ccc(OCc2ccc(C(C)(C)C)cc2)cc1)c1c(C)cc(=O)n(O)c1O [Compound 1808]
RESULT UNIT: µM
COMPARISON OPERATOR: =
TEST VALUE: 100

----------
# reported Sol 1 (solubility limit); entries follow
- PROTOCOL NOTES: Solubility limit, turbidimetric assay
- Type: physicochemical
- EXPERIMENTAL CONDITIONS: pH 6.5, replicate 1; upper limit 200 µM

COMPOUND: CC(=NOCc1cc(F)ccc1F)c1c(C)cc(=O)n(O)c1O [Compound 1810]
Sol 1 (solubility limit): 100 µM

COMPOUND: CC(=NOCc1cccc(Br)c1)c1c(C)cc(=O)n(O)c1O [Compound 1621]
Sol 1 (solubility limit): > 200 µM

COMPOUND: CC(=NOCc1ccc2ccccc2c1)c1c(C)cc(=O)n(O)c1O [Compound 1811]
Sol 1 (solubility limit): > 200 µM

COMPOUND: COc1ccc(CON=C(C)c2c(C)cc(=O)n(O)c2O)cc1OC [Compound 1669]
Sol 1 (solubility limit): > 200 µM

COMPOUND: CC(=NOCc1ccccc1Br)c1c(C)cc(=O)n(O)c1O [Compound 1718]
Sol 1 (solubility limit): 50 µM

COMPOUND: CC(=NOCc1cccc(Cl)c1)c1c(C)cc(=O)n(O)c1O [Compound 1719]
Sol 1 (solubility limit): > 200 µM

COMPOUND: CC(=NOCc1cccc(F)c1)c1c(C)cc(=O)n(O)c1O [Compound 1618]
Sol 1 (solubility limit): > 200 µM

COMPOUND: CC(=NOCc1ccc(OCc2ccc(C(C)(C)C)cc2)cc1)c1c(C)cc(=O)n(O)c1O [Compound 1808]
Sol 1 (solubility limit): > 200 µM

COMPOUND: CC(=NOCc1ccc(F)cc1F)c1c(C)cc(=O)n(O)c1O [Compound 1464]
Sol 1 (solubility limit): > 200 µM

COMPOUND: CC(=NOCc1ccc(C(F)(F)F)cc1)c1c(C)cc(=O)n(O)c1O [Compound 1235]
Sol 1 (solubility limit): 100 µM

COMPOUND: CC(=NOCc1ccc(Cl)cc1)c1c(C)cc(=O)n(O)c1O [Compound 1466]
Sol 1 (solubility limit): > 200 µM

COMPOUND: CC(=NOCc1ccc(F)c(F)c1)c1c(C)cc(=O)n(O)c1O [Compound 1617]
Sol 1 (solubility limit): > 200 µM

COMPOUND: CC(=NOCc1cccc(C)c1)c1c(C)cc(=O)n(O)c1O [Compound 1620]
Sol 1 (solubility limit): > 200 µM

COMPOUND: CC(=NOCc1ccc(Br)cc1)c1c(C)cc(=O)n(O)c1O [Compound 1717]
Sol 1 (solubility limit): 50 µM

COMPOUND: CC(=NOCc1ccc(C)cc1)c1c(C)cc(=O)n(O)c1O [Compound 1462]
Sol 1 (solubility limit): > 200 µM

COMPOUND: CC(=NOCc1ccccc1C)c1c(C)cc(=O)n(O)c1O [Compound 1681]
Sol 1 (solubility limit): > 200 µM

COMPOUND: CC(=NOCc1ccc(OCc2ccc3ccccc3c2)cc1)c1c(C)cc(=O)n(O)c1O [Compound 1899]
Sol 1 (solubility limit): > 200 µM

COMPOUND: CC(=NOCc1ccc(OCc2ccccc2)cc1)c1c(C)cc(=O)n(O)c1O [Compound 1738]
Sol 1 (solubility limit): > 200 µM

----------
- Test system: HepDES19 cells
- EXPERIMENTAL CONDITIONS: read-out: HepDES19 CC50; 72 h, MTS; highest concentration tested 100 µM; mean ± SD

ITEM SMILES: CC(=NOCc1cccc(C)c1)c1c(C)cc(=O)n(O)c1O
TESTED TARGET: HepDES19 cells
COMPARISON OPERATOR: >
CC50 [µM]: 100
--
ITEM SMILES: CC(=NOCc1ccc(C(F)(F)F)cc1)c1c(C)cc(=O)n(O)c1O
TESTED TARGET: HepDES19 cells
COMPARISON OPERATOR: =
CC50 [µM]: 49.2
--
ITEM SMILES: CC(=NOCc1ccccc1C)c1c(C)cc(=O)n(O)c1O
TESTED TARGET: HepDES19 cells
COMPARISON OPERATOR: >
CC50 [µM]: 100
--
ITEM SMILES: CC(=NOCc1cccc(F)c1)c1c(C)cc(=O)n(O)c1O
TESTED TARGET: HepDES19 cells
COMPARISON OPERATOR: =
CC50 [µM]: 73.9
